# system.name: DGKζ (Homo sapiens (Human), UniProt Q13574)
# Sequence (Q13574 other isoform, or with tags, fused parts or gaps): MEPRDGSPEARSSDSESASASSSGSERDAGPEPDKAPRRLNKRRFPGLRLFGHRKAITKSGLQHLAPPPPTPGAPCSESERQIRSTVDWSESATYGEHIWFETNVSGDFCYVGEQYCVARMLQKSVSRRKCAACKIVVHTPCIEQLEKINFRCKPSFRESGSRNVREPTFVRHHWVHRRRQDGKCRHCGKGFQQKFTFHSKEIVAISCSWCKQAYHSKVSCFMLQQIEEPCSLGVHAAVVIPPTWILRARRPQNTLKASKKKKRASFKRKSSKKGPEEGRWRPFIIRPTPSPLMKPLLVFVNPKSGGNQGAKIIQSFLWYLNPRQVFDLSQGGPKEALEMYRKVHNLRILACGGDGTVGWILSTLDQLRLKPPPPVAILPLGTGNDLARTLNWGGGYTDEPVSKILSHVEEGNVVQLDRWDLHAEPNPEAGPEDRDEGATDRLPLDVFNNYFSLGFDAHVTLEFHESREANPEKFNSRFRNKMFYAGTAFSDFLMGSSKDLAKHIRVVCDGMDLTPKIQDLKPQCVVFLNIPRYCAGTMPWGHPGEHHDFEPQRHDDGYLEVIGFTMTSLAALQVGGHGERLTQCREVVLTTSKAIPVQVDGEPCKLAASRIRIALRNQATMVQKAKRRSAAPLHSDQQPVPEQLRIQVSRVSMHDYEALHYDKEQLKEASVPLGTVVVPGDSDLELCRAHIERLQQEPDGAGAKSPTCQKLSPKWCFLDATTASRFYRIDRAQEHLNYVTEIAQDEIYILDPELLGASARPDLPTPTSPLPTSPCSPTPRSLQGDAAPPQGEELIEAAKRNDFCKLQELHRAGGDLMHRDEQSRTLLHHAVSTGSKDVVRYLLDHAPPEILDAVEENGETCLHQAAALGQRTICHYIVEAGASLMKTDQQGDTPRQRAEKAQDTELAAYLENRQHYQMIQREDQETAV
# assay.method.text: Biochemical DGK IC50 assay, DGKζ ADP-Glo assay
# test.conditions: 0.5 nM enzyme, 140 μM ATP, 80 μM DAG; read-out: DGKζ ADP-Glo assay IC50
readout.name: IC50 (nM)
I only need the number, in nM, no unit after it.

Req: # get_value(readout='IC50', item= CC[C@H]1CN(C(C)c2ncccc2COC)[C@H](CC)CN1c1cc(=O)n(C)c2cn(CC#N)nc12 (stereo partly shown) )
Resp: 3660

Req: Now the molecule C[C@@H]1CN(c2cc(=O)n(C)c3cn(CC#N)nc23)[C@@H](C)CN1[C@H](C)c1ccc2nccnc2c1
Resp: 13000

Req: Field entry: CC[C@H]1CN(C(C)c2ccc(F)cc2C(=O)OC)[C@H](CC)CN1c1cc(=O)n(C)c2cn(CC#N)nc12 (stereo partly shown)
Resp: 425

Req: Subsequent entry: CC[C@H]1CN(C(C)c2ccc(C3CC3)cc2OC)[C@H](CC)CN1c1cc(=O)n(C)c2cn(CC#N)nc12 (single isomer, unassigned) [Compound A199b]
Resp: 803

Req: Entry COC(=O)Cn1cc2c(n1)c(N1C[C@@H](C)N(C(C)c3ccc4nccnc4c3)C[C@@H]1C)cc(=O)n2C (stereo partly shown) please
Resp: 1030

Req: Thanks! And CC[C@H]1CN(C(C)c2cc(C)c(C)cn2)[C@H](CC)CN1c1cc(=O)n(C)c2cn(CC#N)nc12 (stereo partly shown) ?
Resp: 498

Req: Follow-up entry: CC(c1ccc2nccnc2c1)N1C[C@H](C)N(c2cc(=O)n(C)c3cn(CC#N)nc23)C[C@H]1C (mixture of isomers)
Resp: 71

Req: CC[C@H]1CN(C(C)c2ccc(C3CC3)nc2)[C@H](CC)CN1c1cc(=O)n(C)c2cn(CC#N)nc12 (stereo partly shown) , same question.
Resp: 249

Req: Next entry: CC(c1cnc2c(c1)OCCO2)N1C[C@H](C)N(c2cc(=O)n(C)c3cn(CC#N)nc23)C[C@H]1C (stereo partly shown)
Resp: 3010

Req: Similarly, CC[C@H]1CN(C(C)c2ccc(F)nc2)[C@H](CC)CN1c1cc(=O)n(C)c2cn(CC#N)nc12 (single isomer, unassigned) [Compound A353b] ?
Resp: 2490

Req: Queued: C[C@@H]1CN(c2cc(=O)n(C)c3cn(CC#N)nc23)[C@@H](C)CN1Cc1ccc2nccnc2c1
Resp: 610

Req: Param item: CC[C@H]1CN(C(C)c2ccc(F)cc2OC)[C@H](CC)CN1c1cc(=O)n(CCO)c2cn(CC#N)nc12 (single isomer, unassigned) [Compound A153a]
Resp: 9340

###

# system.name: DGKζ (Homo sapiens (Human), UniProt Q13574)
# assay.method.text: Biochemical DGK IC50 assay, DGKζ ADP-Glo assay
# test.conditions: 0.5 nM enzyme, 140 μM ATP, 80 μM DAG; read-out: DGKζ ADP-Glo assay IC50
# Experimental: Enzymatic reactions of DGKζ, DGKα and DGKδ were performed using ADP-Glo assay with lipid micelle substrate. […] Full length DGKα (D21-10BG, SignalChem) and full length DGKδ (D23-10G, SignalChem) were purchased. Lipid micelle was prepared by dissolving DAG (Sigma, 317505-10MG) and PS (Sigma, P7769-100MG) with chloroform which was furtherly removed by rotary evaporation. […]
readout.name: pIC50
Quick note: pIC50 means taking -log10 of the concentration in moles per liter.

Req: Give the reported pIC50 for CC[C@@H]1CN(c2cc(=O)[nH]c3cn(CC#N)nc23)[C@@H](C)CN1C(C)c1ccc2nccnc2c1 (single isomer, unassigned) [Compound A177a] (system: DGKζ (Homo sapiens (Human), UniProt Q13574)).
Resp: 7.15

Req: Also CC(c1ccc(F)cc1C(C)(F)F)N1C[C@H](C)N(c2cc(=O)n(C)c3cn(CC#N)nc23)C[C@H]1C (stereo partly shown) [Compound A254] , if possible.
Resp: 6.51

Req: Record: CC[C@H]1CN(C(C)c2cnc(C)cn2)[C@H](CC)CN1c1cc(=O)n(C)c2cn(CC#N)nc12 (stereo partly shown) [Compound A356]
Resp: 5.80

Req: Quick one: CC[C@H]1CN(C(C)c2cnc(C)cc2C(F)(F)F)[C@H](CC)CN1c1cc(=O)n(C)c2cn(CC#N)nc12 (stereo partly shown) [Compound A235]
Resp: 5.27

Req: Also need CC(c1ccc(F)cc1CC#N)N1C[C@H](C)N(c2cc(=O)n(C)c3cn(CC#N)nc23)C[C@H]1C (single isomer, unassigned) [Compound A287a] , thanks.
Resp: 5.01

Req: Could you do the same for COC(C)c1cc(F)ccc1C(C)N1C[C@H](C)N(c2cc(=O)n(C)c3cn(CC#N)nc23)C[C@H]1C (single isomer, unassigned) [Compound A286a] , please?
Resp: 5.58

Req: Can you handle CC#CCn1cc2c(n1)c(N1C[C@@H](CC)N(C(C)c3nc4ccccc4n3CC)C[C@@H]1CC)cc(=O)n2C (stereo partly shown) [Compound A186] next?
Resp: 7.23

Req: Can you check CC#CCn1cc2c(n1)c(N1C[C@@H](CC)N(C(C)c3cc4ccccc4cn3)C[C@@H]1C)cc(=O)n2C (stereo partly shown) [Compound A393] next?
Resp: 6.10

Req: Similarly, CC(c1ccc2nccnc2c1)N1C[C@H](C)N(c2cc(=O)n(C)c3cn(CC4CO4)nc23)C[C@H]1C (stereo partly shown) [Compound A12] ?
Resp: 5.66

Req: Then what about the molecule CC[C@@H]1CN(c2cc(=O)n(C)c3cn(CC)nc23)[C@@H](C)CN1C(C)c1ccc2nccnc2c1 (single isomer, unassigned) [Compound A221a] ?
Resp: 6.67

Req: Try CC(c1ccc2nccnc2c1)N1C[C@H](C(F)F)N(c2cc(=O)n(C)c3cn(CC#N)nc23)C[C@H]1C (stereo partly shown) [Compound A261] next.
Resp: 5.63

Req: Query CC[C@H]1CN(C(C)c2cccc(CO)c2)[C@H](CC)CN1c1cc(=O)n(C)c2cn(CC#N)nc12 (single isomer, unassigned) [Compound A121a] next
Resp: 5.52

Req: Same thing, different molecule: CC[C@H]1CN(C(C)c2ncc(OC(F)(F)F)cc2F)[C@H](CC)CN1c1cc(=O)n(C)c2cn(CC#N)nc12 (single isomer, unassigned) [Compound A362a]
Resp: 5.60
